target: human LPAR1 (Homo sapiens); experiment: LPAR1 intracellular calcium mobilization assay (antagonist mode)
Quantity Name: EC50 (nM)
Express it in nM; write the number only.

[
  {
    "Compound": "CC(OC(=O)Nc1c(-c2ccc(NS(C)(=O)=O)cn2)nnn1C)c1c(F)cccc1Cl (stereo not shown)",
    "EC50 (nM)": 87
  },
  {
    "Compound": "COCC(OC(=O)Nc1c(-c2ccc(NS(C)(=O)=O)c(C)n2)nnn1C)c1ccccc1 (stereo not shown)",
    "EC50 (nM)": 469
  },
  {
    "Compound": "Cc1nc(-c2nnn(C)c2NC(=O)O[C@H](C)c2ccccc2C(F)(F)F)ccc1NS(C)(=O)=O",
    "EC50 (nM)": 69.9
  }
]

Please examine the following record next.
Item: C[C@@H](OC(=O)Nc1c(-c2ccc(NS(C)(=O)=O)cn2)nnn1C)c1cccnc1Br Test system: human LPAR1 (Homo sapiens) Read-out: EC50 Value: ? 129

* * *

EC50 by entry:
target: human LPAR1 (Homo sapiens, UniProt Q92633); experiment: LPAR1 intracellular calcium mobilization assay (antagonist mode)
Sequence (Q92633 whole entry): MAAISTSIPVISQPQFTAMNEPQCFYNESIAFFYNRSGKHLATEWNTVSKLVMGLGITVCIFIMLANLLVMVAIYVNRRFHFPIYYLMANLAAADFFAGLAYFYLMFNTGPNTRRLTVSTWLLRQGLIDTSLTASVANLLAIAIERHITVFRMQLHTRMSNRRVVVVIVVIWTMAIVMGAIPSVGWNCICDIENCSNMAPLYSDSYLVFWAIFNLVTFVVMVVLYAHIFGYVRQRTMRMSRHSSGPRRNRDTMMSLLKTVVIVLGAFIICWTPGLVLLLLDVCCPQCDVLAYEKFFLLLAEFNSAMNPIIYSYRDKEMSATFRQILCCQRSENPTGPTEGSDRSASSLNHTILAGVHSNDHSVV
Express it in nM; write the number only.

Worked examples, 3 compounds total:
[
  {
    "Compound": "Cc1nc(-c2nnn(C)c2NC(=O)OC(c2cccnc2Cl)C(F)F)ccc1NS(C)(=O)=O (stereo not shown) [Compound 137]",
    "Readout Value": 493
  },
  {
    "Compound": "Cc1nc(-c2nnn(C)c2NC(=O)O[C@H](C)c2cccnc2F)ccc1NS(C)(=O)=O [Compound 128]",
    "Readout Value": 265
  },
  {
    "Compound": "Cc1nc(-c2nnn(C)c2NC(=O)OCc2cc(F)ccc2F)ccc1NS(C)(=O)=O [Compound 36]",
    "Readout Value": 220
  }
]

Please examine the following record next.
Item: CC(C)NS(=O)(=O)Nc1ccc(-c2nnn(C)c2NC(=O)O[C@H](C)c2cccnc2Cl)nc1 [Compound 160] Test system: human LPAR1 (Homo sapiens, UniProt Q92633) Read-out: EC50 Value: ? 267

* * *

molecular target: human LPAR1 (Homo sapiens, UniProt Q92633); experiment: LPAR1 intracellular calcium mobilization assay (antagonist mode)
Quantity Name: EC50 (nM)
Express it in nM; write the number only.

Worked examples, 3 compounds total:
[
  {
    "Compound": "C[C@@H](OC(=O)Nc1c(-c2ccc(NS(C)(=O)=O)cn2)nnn1C)c1cccnc1Cl",
    "Units Text": "nM",
    "Readout Value": 36
  },
  {
    "Compound": "Cc1nc(-c2nnn(C)c2NC(=O)OC(C)c2cc(Cl)nnc2Cl)ccc1NS(C)(=O)=O (stereo not shown)",
    "Units Text": "nM",
    "Readout Value": 1830
  },
  {
    "Compound": "C[C@@H](OC(=O)Nc1c(-c2ccc(NS(C)(=O)=O)cn2)nnn1C)c1cc(F)ncc1F",
    "Units Text": "nM",
    "Readout Value": 218
  }
]

Using the record for Cc1nc(-c2nnn(C)c2NC(=O)O[C@H](C)c2cccnc2Cl)ccc1NS(C)(=O)=O , report its EC50. 218

* * *

pEC50 by entry:
molecular target: human LPAR1 (Homo sapiens, UniProt Q92633); assay: LPAR1 intracellular calcium mobilization assay (antagonist mode)
// scale note: pEC50 = -log10(conc_M); give the bare number

[
  {
    "Molecule": "Cc1nc(-c2nnn(C)c2NC(=O)OCCC(C)C)ccc1NS(C)(=O)=O",
    "pEC50": 5.43
  }
]

Using the record for Cc1nc(-c2nnn(C)c2NC(=O)O[C@H](CF)c2cccc(Cl)c2)ccc1NS(C)(=O)=O , report its pEC50. 7.73

Using the record for Cc1nc(-c2nnn(C)c2NC(=O)OC2c3ccccc3CC2F)ccc1NS(C)(=O)=O (centres unmarked) , report its pEC50. 5.49

Using the record for C[C@@H](OC(=O)Nc1c(-c2ccc(NS(=O)(=O)NC3CC3)cn2)nnn1C)c1cccnc1Cl , report its pEC50. 6.62

Using the record for Cc1nc(-c2nnn(C)c2NC(=O)O[C@H](CF)c2ccccc2)ccc1NS(C)(=O)=O , report its pEC50. 7.42

Using the record for Cc1nc(-c2nnn(CC#N)c2NC(=O)O[C@@H](c2ccccc2)C(F)F)ccc1NS(C)(=O)=O , report its pEC50. 6.94

Using the record for Cc1nc(-c2nnn(C)c2NC(=O)O[C@H](CF)c2ccccc2F)ccc1NS(C)(=O)=O , report its pEC50. 7.30

Using the record for CCn1nnc(-c2ccc(NS(C)(=O)=O)c(C)n2)c1NC(=O)O[C@H](C)c1cccnc1Cl , report its pEC50. 6.43

* * *

biological target: human LPAR1 (Homo sapiens); assay: LPAR1 intracellular calcium mobilization assay (antagonist mode)
pEC50: −log10 of the molar value.
Classification by pEC50 follows these ranges: band 1 (below 6), band 2 (6 to below 7), band 3 (7 or more)

[
  {
    "Compound": "Cc1nc(-c2nnn(C)c2NC(=O)O[C@H](C)c2cccnc2)ccc1NS(C)(=O)=O",
    "Assigned Category": "band 1"
  }
]

Hello team, could you let me know which band the following compound falls into: Cc1nc(-c2nnn(C)c2NC(=O)O[C@H](C)c2ccccc2Cl)ccc1NS(C)(=O)=O band 3

Hello team, could you let me know which band the following compound falls into: Cc1nc(-c2nnn(C)c2NC(=O)O[C@H](C)c2cccc(Cl)c2F)ccc1NS(C)(=O)=O band 2

Hello team, could you let me know which band the following compound falls into: C[C@@H](OC(=O)Nc1c(-c2ncc(NS(C)(=O)=O)cc2F)nnn1C)c1ccccc1Cl band 3

Hello team, could you let me know which band the following compound falls into: Cc1nc(-c2nnn(C)c2NC(=O)OC(C)c2cccnc2C(F)(F)F)ccc1NS(C)(=O)=O (stereo not shown) band 1

Hello team, could you let me know which band the following compound falls into: C[C@@H](OC(=O)Nc1c(-c2ccc(NS(C)(=O)=O)c(F)n2)nnn1C)c1cccnc1Cl band 2

Hello team, could you let me know which band the following compound falls into: Cc1nc(-c2nnn(C)c2NC(=O)O[C@@H](c2ccccc2F)C(F)(F)F)ccc1NS(C)(=O)=O band 2

Hello team, could you let me know which band the following compound falls into: Cc1nc(-c2nnn(C)c2NC(=O)OC(C)c2cncc(F)c2Cl)ccc1NS(C)(=O)=O (stereo not shown) band 2

Hello team, could you let me know which band the following compound falls into: Cc1nc(-c2nnn(C)c2NC(=O)O[C@H](CF)c2cccc(F)c2)ccc1NS(C)(=O)=O band 3

* * *

molecular target: human LPAR1 (Homo sapiens, UniProt Q92633); assay: LPAR1 intracellular calcium mobilization assay (antagonist mode)
log10 of EC50 by entry:
On a log10 scale: recorded EC50, unit nM.

[
  {
    "Compound": "C[C@@H](OC(=O)Nc1c(-c2ccc(NS(C)(=O)=O)cn2)nnn1C)c1cc(Cl)sc1Cl",
    "Readout Value": 1.09
  },
  {
    "Compound": "Cc1nc(-c2nnn(C)c2NC(=O)N[C@@H](c2ccccc2)C(F)(F)F)ccc1NS(C)(=O)=O",
    "Readout Value": 2.73
  }
]

Item: Cc1nc(-c2nnn(C)c2NC(=O)OC(C)c2ncccc2Cl)ccc1NS(C)(=O)=O (centres unmarked) Test system: human LPAR1 (Homo sapiens, UniProt Q92633) Read-out: log10 of EC50 Value: ? 2.83

* * *

EC50 by entry:
biological target: human LPAR1 (Homo sapiens); assay: LPAR1 intracellular calcium mobilization assay (antagonist mode)
Express it in nM; write the number only.

Worked examples, 10 compounds total:
[
  {
    "Compound": "Cc1nc(-c2nnn(C)c2NC(=O)O[C@H](C)c2cccnc2C)ccc1NS(C)(=O)=O [Compound 141]",
    "Target Of Assay": "human LPAR1 (Homo sapiens)",
    "EC50 (nM)": 723
  },
  {
    "Compound": "Cc1nc(-c2nnn(C)c2NC(=O)OCCC(C)(C)C)ccc1NS(C)(=O)=O [Compound 32]",
    "Target Of Assay": "human LPAR1 (Homo sapiens)",
    "EC50 (nM)": 1690
  },
  {
    "Compound": "Cc1nc(-c2nnn(C)c2NC(=O)OC(C)c2cc(F)cnc2Br)ccc1NS(C)(=O)=O (stereo not shown) [Compound 126]",
    "Target Of Assay": "human LPAR1 (Homo sapiens)",
    "EC50 (nM)": 232
  },
  {
    "Compound": "Cc1nc(-c2nnn(C)c2NC(=O)OCc2cccc(Cl)c2)ccc1NS(C)(=O)=O [Compound 39]",
    "Target Of Assay": "human LPAR1 (Homo sapiens)",
    "EC50 (nM)": 89.5
  },
  {
    "Compound": "Cc1nc(-c2nnn(C)c2NC(=O)OCc2ccccc2Cl)ccc1NS(C)(=O)=O [Compound 40]",
    "Target Of Assay": "human LPAR1 (Homo sapiens)",
    "EC50 (nM)": 87
  },
  {
    "Compound": "Cc1ccc(C)c([C@@H](C)OC(=O)Nc2c(-c3ccc(NS(C)(=O)=O)c(C)n3)nnn2C)c1 [Compound 27]",
    "Target Of Assay": "human LPAR1 (Homo sapiens)",
    "EC50 (nM)": 57.7
  },
  {
    "Compound": "Cc1nc(-c2nnn(C)c2NC(=O)O[C@H](CCl)c2ccccc2)ccc1NS(C)(=O)=O [Compound 49]",
    "Target Of Assay": "human LPAR1 (Homo sapiens)",
    "EC50 (nM)": 203
  },
  {
    "Compound": "C[C@@H](OC(=O)Nc1c(-c2ccc(NS(C)(=O)=O)c(C(F)F)n2)nnn1C)c1ccccc1 [Compound 150]",
    "Target Of Assay": "human LPAR1 (Homo sapiens)",
    "EC50 (nM)": 1050
  },
  {
    "Compound": "COCc1nc(-c2nnn(C)c2NC(=O)O[C@H](C)c2cccnc2Cl)ccc1NS(C)(=O)=O [Compound 145]",
    "Target Of Assay": "human LPAR1 (Homo sapiens)",
    "EC50 (nM)": 493
  },
  {
    "Compound": "COc1ncccc1[C@@H](C)OC(=O)Nc1c(-c2ccc(NS(C)(=O)=O)c(C)n2)nnn1C [Compound 122]",
    "Target Of Assay": "human LPAR1 (Homo sapiens)",
    "EC50 (nM)": 920
  }
]

Item: Cc1nc(-c2nnn(C)c2NC(=O)O[C@H](C)c2cc(Br)cnc2F)ccc1NS(C)(=O)=O [Compound 125] Test system: human LPAR1 (Homo sapiens) Read-out: EC50 Value: ? 187

Item: Cn1nnc(-c2ccc(NS(C)(=O)=O)cn2)c1NC(=O)O[C@H](CF)c1cccc(F)c1 [Compound 22] Test system: human LPAR1 (Homo sapiens) Read-out: EC50 Value: ? 8.7

Item: C[C@@H](OC(=O)Nc1c(-c2ncc(NS(C)(=O)=O)cc2F)nnn1C)c1cccc(F)c1 [Compound 88] Test system: human LPAR1 (Homo sapiens) Read-out: EC50 Value: ? 256

Item: COc1nc(-c2nnn(C)c2NC(=O)O[C@H](C)c2ccccc2)ccc1NS(C)(=O)=O [Compound 1] Test system: human LPAR1 (Homo sapiens) Read-out: EC50 Value: ? 323

Item: Cc1nc(-c2nnn(C)c2NC(=O)O[C@H](C)c2cc(F)ccc2F)ccc1NS(C)(=O)=O [Compound 63] Test system: human LPAR1 (Homo sapiens) Read-out: EC50 Value: ? 23.4

Item: [2H]C([2H])([2H])N(c1ccc(-c2nnn(C)c2NC(=O)O[C@H](C)c2cccnc2Cl)nc1C)S(C)(=O)=O [Compound 164] Test system: human LPAR1 (Homo sapiens) Read-out: EC50 Value: ? 438

# credit: patent US11548871B2
